Give Lactobacilli germ count for every item shown.
System: Lactobacilli
Assay: quantitative suspension assay, Lactobacilli; also: test concentration or dose not given here
Type: cell-based
Conditions: 60 min exp. time; control 10^5/ml

Reference set (3 entries):
molecule	subject of test	measure name	measurement
OCC(O)CO [Glycerol]	Lactobacilli	Lactobacilli germ count	10^5 /ml
CC(O)C(=O)O (stereo not shown) [Lactic acid]	Lactobacilli	Lactobacilli germ count	10^4 /ml
OCc1ccccc1 [Benzyl alcohol]	Lactobacilli	Lactobacilli germ count	10^5 /ml

Q: State the recorded Lactobacilli germ count for this entry: CC(O)CO (stereo not shown) [Propylene glycol]
A: 10^5 /ml

This collection of values is drawn from patent US20020176882A1.
